Origin of measurements: patent US12043599B2

# System: Setaria faberi (SETFA)
# Experiment: Post-emergence herbicidal glasshouse test, percentage damage
# Format: in vivo
# Measurement Parameters: 250 g/h, evaluated after 13 days
SETFA POST percentage damage (five point scale) listing for selected compounds.

Here is how some compounds turned out for SETFA POST percentage damage (five point scale).
CC#Cc1cc(C)c(C2C(=O)CC3(CCN(C(=O)COC4CC4)CC3)CC2=O)c(C)c1 [Compound A202] = 5 (5=80-100%)
CC#Cc1cc(C)c(C2C(=O)CC3(CCN(C(=O)NC(=O)c4ncccc4F)CC3)CC2=O)c(C)c1 [Compound A163] = 5 (5=80-100%)
CC#Cc1cc(C)c(C2C(=O)CC3(CCN(C(=O)Cc4ncccn4)CC3)CC2=O)c(C)c1 [Compound A102] = 5 (5=80-100%)
CC#Cc1cc(C)c(C2=C(OC(=O)OC)CC3(CCN(S(=O)(=O)CC)CC3)CC2=O)c(C)c1 [Compound P7] = 5 (5=80-100%)
CC#Cc1cc(C)c(C2=C(OC(=O)OCCOC)CC3(CCN(C(=O)OCCOC)CC3)CC2=O)c(C)c1 [Compound P52] = 5 (5=80-100%)
CC#Cc1cc(C)c(C2=C(OC(=O)OC)CC3(CCN(C(=O)OC(C)(C)C)CC3)CC2=O)c(C)c1 [Compound P21] = 5 (5=80-100%)

Then this compound:
Query: SETFA POST percentage damage (five point scale); subject: CC#Cc1cc(C)c(C2C(=O)CC3(CCN(C(=O)CC#N)CC3)CC2=O)c(OC)c1 [Compound A80] 5 (5=80-100%)
